Catalogue of MCC values
# assay name: Cytotoxicity against HeLa cells assessed as alteration in cell morphology
# Format: cell-based
# setup conditions: human
recorded endpoint: MCC

>>> df
                                    compound  measurement
 0     Nc1ncn(C[C@@H](CO)OCP(=O)(O)O)c(=O)n1  > 400 µg/mL
 1         C[C@H](Cn1cnc(N)nc1=O)OCP(=O)(O)O  > 100 µg/mL
 2      Nc1ncnc2c1ncn2C[C@H](O)CO [(S)-DHPA]  > 400 µg/mL
 3  O=c1[nH]c(=O)n([C@H]2C[C@H](O)[C@@H](CO)O2)cc1/C=C/Br  > 400 µg/mL
 4       NC(N)=NC(=O)NC[C@@H](CO)OCP(=O)(O)O  > 100 µg/mL
 5      Nc1ncn(C[C@H](CO)OCP(=O)(O)O)c(=O)n1  > 200 µg/mL
 6                Nc1ncn(C[C@H](O)CO)c(=O)n1  > 100 µg/mL
 7  NC(=O)c1ncn([C@@H]2O[C@H](CO)[C@@H](O)[C@H]2O)n1  > 400 µg/mL
 8    NC(=NC(=O)NC[C@@H](CO)OCP(=O)(O)O)NC=O  > 100 µg/mL
 9     Nc1cnn(C[C@@H](CO)OCP(=O)(O)O)c(=O)n1  > 400 µg/mL
10              Nc1ncn(CCOCP(=O)(O)O)c(=O)n1    400 µg/mL
